Test system: E.coli ATCC 25922
Format: cell-based, Escherichia coli
Details: ATCC 25922, 24 h
Where a SMILES comes first, the peptide text is derived from it. [ ]: non-standard residue; d: D form. The star is where a group is joined. Arachidoyl = CCCCCCCCCCCCCCCCCCCC(=O)*; Palmitoyl = CCCCCCCCCCCCCCCC(=O)*; Myristoyl = CCCCCCCCCCCCCC(=O)*; Nlys = NCCCCNCC(=O)O
MEASURE: MIC E.coli (µg/mL)
Field format: number, assumed µg/mL, no unit text.

response.value for CCCCCCCCCCCCCC(=O)N(CCCCN)CC(=O)N(CCCCN)CC(=O)N(CCCCN)CC(N)=O [C14-NlysNlysNlys] (field: MIC E.coli) = 128

response.value for CCCCCCCCCCCCCCCCCCCC(=O)N(CCCCN)CC(=O)N(CCCCN)CC(=O)N(CCCCN)CC(N)=O [C20-NlysNlysNlys] (field: MIC E.coli) = 32

response.value for CCCCCCCCCCCCCCCC(=O)N(CCCCNC(=N)N)CC(=O)N(CCCCNC(=N)N)CC(=O)N(CCCCNC(=N)N)CC(N)=O [C16-NhargNhargNharg] (field: MIC E.coli) = 16

response.value for CCCCCCCCCCC(=O)N(CCCCNC(=N)N)CC(=O)NCC(=O)N(CCCCNC(=N)N)CC(N)=O [C11-NhargGNharg] (field: MIC E.coli) = 512

response.value for CCCCCCCCCCCCCCCCCCCC(=O)N(CCCCNC(=N)N)CC(=O)NCC(=O)N(CCCCNC(=N)N)CC(N)=O [C20-NhargGNharg] (field: MIC E.coli) = 256

response.value for CCCCCCCCCCCCCCCCCCCC(=O)N(CCCCN)CC(=O)NCC(=O)N(CCCCN)CC(N)=O [C20-NlysGNlys] (Arachidoyl-[Nlys]-Gly-[Nlys]-NH2) (field: MIC E.coli) = 256

response.value for CCCCCCCCCCCCCCCC(=O)N(CCCCN)CC(=O)NCC(=O)N(CCCCN)CC(N)=O [C16-NlysGNlys] (Palmitoyl-[Nlys]-Gly-[Nlys]-NH2) (field: MIC E.coli) = 16

response.value for CCCCCCCCCCCCCC(=O)N(CCCCNC(=N)N)CC(=O)N(CCCCNC(=N)N)CC(=O)N(CCCCNC(=N)N)CC(N)=O [C14-NhargNhargNharg] (field: MIC E.coli) = 64

response.value for CCCCCCCCCCCCCC(=O)N(CCCCNC(=N)N)CC(=O)NCC(=O)N(CCCCNC(=N)N)CC(N)=O [C14-NhargGNharg] (field: MIC E.coli) = 32

response.value for CCCCCCCCCCCCCC(=O)N(CCCCN)CC(=O)NCC(=O)N(CCCCN)CC(N)=O [C14-NlysGNlys] (Myristoyl-[Nlys]-Gly-[Nlys]-NH2) (field: MIC E.coli) = 128

response.value for CCCCCCCCCCCCCCCC(=O)N(CCCCN)CC(=O)N(CCCCN)CC(=O)N(CCCCN)CC(N)=O [C16-NlysNlysNlys] (field: MIC E.coli) = 32

response.value for CCCCCCCCCCCCCCCC(=O)N(CCCCNC(=N)N)CC(=O)NCC(=O)N(CCCCNC(=N)N)CC(N)=O [C16-NhargGNharg] (field: MIC E.coli) = 16

====

Test system: E.coli CAN-ICU 63074
Format: cell-based, Escherichia coli
Details: CAN-ICU 63074, 24 h
Where a SMILES comes first, the peptide text is derived from it. [ ]: non-standard residue; d: D form. The star is where a group is joined. Palmitoyl = CCCCCCCCCCCCCCCC(=O)*; Undecanoyl = CCCCCCCCCCC(=O)*; Nlys = NCCCCNCC(=O)O
Could you please report measured MIC E.coli in the presence of 4% bovine serum albumin for the items listed next?

Entry CCCCCCCCCCC(=O)N(CCCCN)CC(=O)NCC(=O)N(CCCCN)CC(N)=O [C11-NlysGNlys] (Undecanoyl-[Nlys]-Gly-[Nlys]-NH2) , E.coli CAN-ICU 63074 data, MIC E.coli in the presence of 4% bovine serum albumin value: >512 mg/L

Entry CCCCCCCCCCCCCC(=O)N(CCCCNC(=N)N)CC(=O)N(CCCCNC(=N)N)CC(=O)N(CCCCNC(=N)N)CC(N)=O [C14-NhargNhargNharg] , E.coli CAN-ICU 63074 data, MIC E.coli in the presence of 4% bovine serum albumin value: 512 mg/L

Entry CCCCCCCCCCCCCCCC(=O)N(CCCCN)CC(=O)N(CCCCN)CC(=O)N(CCCCN)CC(N)=O [C16-NlysNlysNlys] , E.coli CAN-ICU 63074 data, MIC E.coli in the presence of 4% bovine serum albumin value: >512 mg/L

Entry CCCCCCCCCCCCCCCC(=O)N(CCCCN)CC(=O)NCC(=O)N(CCCCN)CC(N)=O [C16-NlysGNlys] (Palmitoyl-[Nlys]-Gly-[Nlys]-NH2) , E.coli CAN-ICU 63074 data, MIC E.coli in the presence of 4% bovine serum albumin value: 512 mg/L

Entry CCCCCCCCCCCCCC(=O)N(CCCCN)CC(=O)N(CCCCN)CC(=O)N(CCCCN)CC(N)=O [C14-NlysNlysNlys] , E.coli CAN-ICU 63074 data, MIC E.coli in the presence of 4% bovine serum albumin value: >512 mg/L

====

Tested on: E.coli CAN-ICU 63074
Format: cell-based, Escherichia coli
Details: CAN-ICU 63074, 24 h
Where a SMILES comes first, the peptide text is derived from it. [ ]: non-standard residue; d: D form. The star is where a group is joined. Arachidoyl = CCCCCCCCCCCCCCCCCCCC(=O)*; Undecanoyl = CCCCCCCCCCC(=O)*; Nlys = NCCCCNCC(=O)O
MEASURE: MIC E.coli

response.value for CCCCCCCCCCC(=O)N(CCCCNC(=N)N)CC(=O)N(CCCCNC(=N)N)CC(=O)N(CCCCNC(=N)N)CC(N)=O [C11-NhargNhargNharg] (field: MIC E.coli) = >512 µg/mL

response.value for CCCCCCCCCCCCCCCCCCCC(=O)N(CCCCN)CC(=O)NCC(=O)N(CCCCN)CC(N)=O [C20-NlysGNlys] (Arachidoyl-[Nlys]-Gly-[Nlys]-NH2) (field: MIC E.coli) = 128 µg/mL

response.value for CCCCCCCCCCC(=O)N(CCCCN)CC(=O)NCC(=O)N(CCCCN)CC(N)=O [C11-NlysGNlys] (Undecanoyl-[Nlys]-Gly-[Nlys]-NH2) (field: MIC E.coli) = >512 µg/mL

====

System: K.pneumoniae ATCC 13883
Type: cell-based, Klebsiella pneumoniae
Conditions: ATCC 13883, 24 h
Where a SMILES comes first, the peptide text is derived from it. [ ]: non-standard residue; d: D form. The star is where a group is joined. Arachidoyl = CCCCCCCCCCCCCCCCCCCC(=O)*; Myristoyl = CCCCCCCCCCCCCC(=O)*; Nlys = NCCCCNCC(=O)O
MEASURE: MIC K.pneumoniae (µg/mL)
Field format: number, assumed µg/mL, no unit text.

response.value for CCCCCCCCCCCCCCCCCCCC(=O)N(CCCCN)CC(=O)N(CCCCN)CC(=O)N(CCCCN)CC(N)=O [C20-NlysNlysNlys] (field: MIC K.pneumoniae) = 64

response.value for CCCCCCCCCCCCCCCCCCCC(=O)N(CCCCNC(=N)N)CC(=O)NCC(=O)N(CCCCNC(=N)N)CC(N)=O [C20-NhargGNharg] (field: MIC K.pneumoniae) = 128

response.value for CCCCCCCCCCCCCCCC(=O)N(CCCCNC(=N)N)CC(=O)NCC(=O)N(CCCCNC(=N)N)CC(N)=O [C16-NhargGNharg] (field: MIC K.pneumoniae) = 64

response.value for CCCCCCCCCCCCCC(=O)N(CCCCN)CC(=O)NCC(=O)N(CCCCN)CC(N)=O [C14-NlysGNlys] (Myristoyl-[Nlys]-Gly-[Nlys]-NH2) (field: MIC K.pneumoniae) = 256

response.value for CCCCCCCCCCCCCCCCCCCC(=O)N(CCCCN)CC(=O)NCC(=O)N(CCCCN)CC(N)=O [C20-NlysGNlys] (Arachidoyl-[Nlys]-Gly-[Nlys]-NH2) (field: MIC K.pneumoniae) = 128

response.value for CCCCCCCCCCC(=O)N(CCCCNC(=N)N)CC(=O)NCC(=O)N(CCCCNC(=N)N)CC(N)=O [C11-NhargGNharg] (field: MIC K.pneumoniae) = 512

====

System: E.coli ATCC 25922
Assay type: cell-based, Escherichia coli
Settings: ATCC 25922, 24 h
Where a SMILES comes first, the peptide text is derived from it. [ ]: non-standard residue; d: D form. The star is where a group is joined. Undecanoyl = CCCCCCCCCCC(=O)*; Nlys = NCCCCNCC(=O)O
MEASURE: MIC E.coli

response.value for `CCCCCCCCCCC(=O)N(CCCCN)CC(=O)N(CCCCN)CC(=O)N(CCCCN)CC(N)=O` (field: MIC E.coli) = >512 µg/mL

response.value for `CCCCCCCCCCC(=O)N(CCCCNC(=N)N)CC(=O)N(CCCCNC(=N)N)CC(=O)N(CCCCNC(=N)N)CC(N)=O` (field: MIC E.coli) = >512 µg/mL

response.value for CCCCCCCCCCC(=O)N(CCCCN)CC(=O)NCC(=O)N(CCCCN)CC(N)=O [C11-NlysGNlys] (Undecanoyl-[Nlys]-Gly-[Nlys]-NH2) (field: MIC E.coli) = >512 µg/mL

Cited source: paper PMC3402541
